method description: drug combination growth inhibition, ovarian cancer – cell-based, oncology-focused library, rucaparib conditional, profiling panel (AID 1508598)
measurement conditions: patient-derived ovarian cancer cells, CellTiter-Glo viability, 144 h; at 0.0195 µM; OCI-C5x cells; with rucaparib 10 µM; stronger effect = lower value; 100% = cells with rucaparib alone
*1 amine or outer side, *2 acyl side, *3 side chain or, on linkers, in order; H or OH if unused. Where a SMILES comes first, the peptide text is derived from it. Bridges are numbered along the chain shown (N, C = ends). Roman numbers before positions name the chains, in order. [ ]: non-standard residue; d: D form. The star is where a group is joined. Hexamethylenediamine = C(CCCN[*:2])CCN[*:1]; Dip = N[C@H](C(=O)O)C(c1ccccc1)c1ccccc1; Chg = N[C@H](C(=O)O)C1CCCCC1; NMeA = CN[C@@H](C)C(=O)O; Cbz = O=C(OCc1ccccc1)*; CH2F = FC*
For each entry below, report its viability value.
Value expressed in %; do not type the unit.

IN: I would be grateful if you could share the reported viability for COc1ccc(C2=N[C@H](c3ccc(Cl)cc3)[C@@H](c3ccc(Cl)cc3)N2C(=O)N2CCNC(=O)C2)c(OC(C)C)c1 .
OUT: 127

IN: // query viability value for entry COC(=O)C[C@H](NC(=O)[C@H](C)NC(=O)[C@@H](NC(=O)OCc1ccccc1)C(C)C)C(=O)CF (Cbz-Val-Ala-Asp(OMe)-CH2F)
OUT: 113

IN: Look at this molecule and give its reported viability. CC1=C(/C=C/C(C)=C\C=C\C(C)=C/C(=O)O)C(C)(C)CCC1
OUT: 103

IN: Would you mind telling me what viability value was observed for Nc1nonc1C(=Nc1ccc(F)c(Cl)c1)NO ?
OUT: 124

IN: Need viability, item CC(C)NCCCn1c(Sc2cc3c(cc2I)OCO3)nc2c(N)ncnc21
OUT: 126

IN: Which viability value is on record for COc1cccc(-c2cc(F)ccc2[C@H]2Cc3nc(N)nc(C)c3C(=O)N2)n1 ?
OUT: 93.9

IN: Could you tell me which viability is on file for COC1=C2C[C@H](C)C[C@@H](OC)[C@H](O)[C@H](C)/C=C(\C)[C@H](OC(N)=O)[C@@H](OC)/C=C/C=C(\C)C(=O)NC(=CC1=O)C2=O ?
OUT: 29.6

IN: Quick one: viability of COc1ccccc1-c1cc(Nc2cccc(CS(N)(=O)=O)c2)ncn1 ?
OUT: 126

IN: Item C[C@H]1C[C@H]2[C@@H]3CCC4=CC(=O)C=C[C@]4(C)[C@@H]3C(=O)C[C@]2(C)[C@]1(O)C(=O)CO has what recorded viability?
OUT: 113

IN: Need viability, item CC1(C)O[C@@H]2C[C@H]3[C@@H]4CCC5=CC(=O)C=C[C@]5(C)[C@]4(F)[C@H](O)C[C@]3(C)[C@@]2(C(=O)CO)O1
OUT: 105

IN: Requested read-out: viability. Entry: CN(C)CCOc1ccc(-c2nc(-c3ccc4c(c3)CCC4=NO)c(-c3ccncc3)[nH]2)cc1
OUT: 109

IN: Field request: viability | item: CN(CC(=O)N(Cc1ccc(C2CCCCC2)cc1)c1ccc(C(=O)O)cc1)S(=O)(=O)c1c(F)c(F)c(F)c(F)c1F
OUT: 118

IN: // lookup viability for CO[C@H]1/C=C\C=C(\C)C(=O)NC2=CC(=O)C(NCCN(C)C)=C(C[C@@H](C)C[C@H](OC)[C@H](O)[C@@H](C)/C=C(\C)[C@@H]1OC(N)=O)C2=O
OUT: 118

IN: Which viability value belongs to CCOC(=O)c1[nH]c2cc(Cl)ccc2c1C(C(=O)NC(C)(C)C)N(C=O)Cc1ccc(Cl)cc1 (centres undefined) ?
OUT: 110

IN: Please give the measured viability for this molecule: CN[C@@H](C)C(=O)N[C@H](C(=O)N1CCC[C@H]1C(=O)N[C@H](C(=O)NCCCCCCNC(=O)[C@@H](NC(=O)[C@@H]1CCCN1C(=O)[C@@H](NC(=O)[C@H](C)NC)C1CCCCC1)C(c1ccccc1)c1ccccc1)C(c1ccccc1)c1ccccc1)C1CCCCC1 (I: H-[NMeA][Chg]P[Dip] / II: H-[NMeA][Chg]P[Dip]; linker I:C-II:C via Hexamethylenediamine)
OUT: 115

IN: Consider the molecule CC(=O)O[C@@]1(C(C)=O)CC[C@H]2[C@@H]3C[C@H](C)C4=CC(=O)CC[C@]4(C)[C@@H]3CC[C@@]21C and give its measured viability.
OUT: 114

IN: Would you kindly share the measured viability for Cc1cc2c(C(=O)NC[C@H](C)c3ccccc3)c(O)c(O)cc2c(O)c1-c1c(C)cc2c(C(=O)NC[C@H](C)c3ccccc3)c(O)c(O)cc2c1O ?
OUT: 124

IN: Request the reported viability associated with CO[C@H]1C[C@H]2CC[C@@H](C)[C@@](O)(O2)C(=O)C(=O)N2CCCC[C@H]2C(=O)O[C@H]([C@H](C)C[C@@H]2CC[C@H](OP(C)(C)=O)[C@H](OC)C2)CC(=O)[C@H](C)/C=C(\C)[C@@H](O)[C@@H](OC)C(=O)[C@H](C)C[C@H](C)/C=C/C=C/C=C/1C
OUT: 103

IN: Fill in: viability of COc1cc(Br)c(Nc2nc(-c3c(C)nc4ncccn34)cs2)c(Br)c1 is ___
OUT: 135

IN: Bench note: what viability did CN(C)CCSSCCNC(=O)C1CCN(C(=O)CSc2ccc(Cl)cc2)CC1 show?
OUT: 122

IN: Consider the molecule CC(C)(C(=O)NCC(F)(F)C(F)(F)F)C(=O)N[C@H]1C(=O)Nc2ccccc2-c2ccccc21 and give its measured viability.
OUT: 110

IN: Which viability reading was recorded for the molecule C[C@@H]1C[C@H]2[C@@H]3CCC4=CC(=O)C=C[C@]4(C)[C@]3(F)[C@H](O)C[C@]2(C)[C@]1(O)C(=O)CO ?
OUT: 111

IN: Give its viability value. Item: NC(=O)CCCSc1nc(N)nc(-c2c(Cl)cc3c4c(cccc24)COC3)n1
OUT: 125

IN: Dear colleague, I am looking for the recorded viability of the following molecule: C[C@]12CCC(=O)C=C1CC[C@@H]1[C@H]2[C@H](O)C[C@@]2(C)[C@H]1CC[C@@]2(O)C(=O)CO
OUT: 110

IN: Would you kindly share the measured viability for Nc1ncn([C@@H]2O[C@H](CO)[C@@H](O)[C@@H]2O)c(=O)n1 ?
OUT: 114

IN: viability lookup needed for CC(=O)O[C@@]1(C(C)=O)CC[C@H]2[C@@H]3C=C(C)C4=CC(=O)CC[C@]4(C)[C@@H]3CC[C@@]21C , thanks.
OUT: 100

IN: Entry COc1cc(C(=O)NC2CCN(C)CC2)ccc1Nc1ncc2c(n1)N(C1CCCC1)CC(F)(F)C(=O)N2C : reported viability = ?
OUT: 73.1

IN: I am curious: what viability value has been reported for OCCn1cc(-c2ccc3c(c2)CCC3=NO)c(-c2ccncc2)n1 ?
OUT: 116

IN: # viability lookup, item Cc1cc(C)c(-c2csc(NC(=O)c3ccccc3)n2)c(C)c1
OUT: 104
